Biological target: human CD3 on cells (human PBMC; Jurkat TCR/CD3 NFAT reporter cells) (human, UniProt P07766 23-207; P04234 22-171; P09693 23-182)
Sequence (P07766 23-207, chain 1 of 3): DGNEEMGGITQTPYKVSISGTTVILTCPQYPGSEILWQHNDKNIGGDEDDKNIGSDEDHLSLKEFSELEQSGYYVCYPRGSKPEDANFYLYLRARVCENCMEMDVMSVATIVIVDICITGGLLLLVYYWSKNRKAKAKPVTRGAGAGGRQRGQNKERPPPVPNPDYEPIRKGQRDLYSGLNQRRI
Sequence (P04234 22-171, chain 2 of 3): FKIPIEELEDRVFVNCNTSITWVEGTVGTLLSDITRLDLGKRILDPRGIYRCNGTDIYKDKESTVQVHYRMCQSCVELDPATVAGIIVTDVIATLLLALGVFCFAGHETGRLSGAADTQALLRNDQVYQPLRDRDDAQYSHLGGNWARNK
Sequence (P09693 23-182, chain 3 of 3): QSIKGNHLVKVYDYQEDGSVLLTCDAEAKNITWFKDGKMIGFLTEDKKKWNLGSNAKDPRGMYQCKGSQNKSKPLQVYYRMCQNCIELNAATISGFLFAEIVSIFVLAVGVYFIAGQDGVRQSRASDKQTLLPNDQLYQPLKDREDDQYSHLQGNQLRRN
Assay: cell-based or functional assay
# label = label 1 if % of SP34 < 30% else label 0

1) Hu153A6B1-11 (antibody, V domains shown, humanized mAb) VH: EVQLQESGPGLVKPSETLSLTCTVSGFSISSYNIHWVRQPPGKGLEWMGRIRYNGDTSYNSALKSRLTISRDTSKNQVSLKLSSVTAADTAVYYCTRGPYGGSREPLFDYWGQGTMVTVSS VL: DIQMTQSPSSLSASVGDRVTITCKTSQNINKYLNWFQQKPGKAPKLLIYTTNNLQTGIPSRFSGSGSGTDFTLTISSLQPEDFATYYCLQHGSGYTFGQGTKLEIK : label 0
2) Hu155A9B1-16 (antibody, V domains shown, humanized mAb; also called 155z16) VH: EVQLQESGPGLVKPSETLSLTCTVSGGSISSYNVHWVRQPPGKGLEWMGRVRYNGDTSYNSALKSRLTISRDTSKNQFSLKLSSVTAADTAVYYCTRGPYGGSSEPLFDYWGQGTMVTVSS VL: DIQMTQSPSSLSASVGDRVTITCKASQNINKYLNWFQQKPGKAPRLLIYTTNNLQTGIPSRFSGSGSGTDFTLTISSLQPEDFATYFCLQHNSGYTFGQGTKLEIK : label 1
3) Hu155A9B1-3 (antibody, V domains shown, humanized mAb) VH: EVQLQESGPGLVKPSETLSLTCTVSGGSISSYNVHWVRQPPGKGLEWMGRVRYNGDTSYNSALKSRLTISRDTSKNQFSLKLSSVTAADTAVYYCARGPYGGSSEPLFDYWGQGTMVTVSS VL: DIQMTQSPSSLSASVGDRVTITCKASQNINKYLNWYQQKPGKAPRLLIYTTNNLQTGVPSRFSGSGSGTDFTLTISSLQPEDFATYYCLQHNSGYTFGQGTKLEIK : label 1
4) Hu155A9B1-9 (antibody, V domains shown, humanized mAb) VH: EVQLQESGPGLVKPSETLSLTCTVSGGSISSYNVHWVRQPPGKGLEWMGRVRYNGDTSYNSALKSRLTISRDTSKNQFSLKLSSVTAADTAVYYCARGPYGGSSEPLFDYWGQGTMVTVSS VL: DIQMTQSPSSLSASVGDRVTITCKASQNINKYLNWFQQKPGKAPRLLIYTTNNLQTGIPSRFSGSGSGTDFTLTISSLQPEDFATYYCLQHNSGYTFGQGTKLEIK : label 0

Qu. Is 30% strictly greater than the binder's reported % of SP34? binder: Hu153A6B1-15 (antibody, V domains shown, humanized mAb) VH: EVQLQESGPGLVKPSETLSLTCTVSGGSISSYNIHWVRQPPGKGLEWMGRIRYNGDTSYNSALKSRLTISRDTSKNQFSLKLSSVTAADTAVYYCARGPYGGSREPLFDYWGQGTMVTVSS VL: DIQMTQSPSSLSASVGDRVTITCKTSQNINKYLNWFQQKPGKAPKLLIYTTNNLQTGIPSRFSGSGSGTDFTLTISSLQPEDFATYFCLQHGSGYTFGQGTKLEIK
Ans. label 0

// provenance: patent US20240417469A1
